Provenance of the data: patent US20230303994

biological target: pre-pro-insulin glargine
// reported Yield for each item listed

Solved cases (2 shown):
protein	Yield
trypsin variant SEQ ID NO: 119 (protein) IVGGYTCAANSIPYQVSLNSGSHRCGGSLINSQWVVSAAHCYKPRIQVRLGEHNIHVLEGNEQFINAAKIITHPNFNGNTLDNDIMLIKLSSPATLNSAVATVSLPTSCAAAGTECLISGWGNTASSGSSMPSLLQCLKAPVLSDSSCKSSYPGQITGNMICVGFLEGGKDACQGDSGGPVVCNGQLQGIVSSGYGCAQKNKPGVYTKVCNYVNWIQQTIAAN	> 90%
trypsin variant SEQ ID NO: 97 (protein) IVGGYTCAANSIPYQVSLNSGSHRCGGSLINSQWVVSAAHCYKPRIQVRLGEHNIHVLEGNEQFINAAKIITHPNFNPNTLDNDIMLIKLSSPATLNSAVATVSLPTSCAAAGTECLISGWGNTASSGSSMPSLLQCLKAPVLSDSSCKSSYPGQITGNMICVGFLEGGADACQGDSGGPVVCNGQLQGIVSSGYGCAQKNKPGVYTKVCNYVNWIQQTIAAN	> 90%

We now examine a further protein.
The recorded Yield for trypsin variant SEQ ID NO: 14 (protein) IVGGYTCAANSIPYQVSLNSGSHRCGGSLINSQWVVSAAHCYKSRIQVRLGEHNIDVLEGNEQFINAAKIITHPNFNGNTLDNDIMLIKLSSPATLNSHVATVSLPRSCAAAGTECLISGWGNTKSSGSSYPSLLQCLKAPVLSDSSCKSSYPGQITGNMICVGFLEGGKDACQGDSGGPVVCNGQLQGIVSSGYGCAQKNKPGVYTKVCNYVNWIQQTIAAN is > 90%
